Data origin: ChEMBL document CHEMBL4270513

target: Melanocortin receptor 5 (Homo sapiens, UniProt P33032); experiment: Displacement of [125I]-[Nle4,d-Phe7]-alpha-MSH from human MC5R expressed in HEK293 cells after 40 mins by gamma counting analysis
Sequence (P33032 whole entry): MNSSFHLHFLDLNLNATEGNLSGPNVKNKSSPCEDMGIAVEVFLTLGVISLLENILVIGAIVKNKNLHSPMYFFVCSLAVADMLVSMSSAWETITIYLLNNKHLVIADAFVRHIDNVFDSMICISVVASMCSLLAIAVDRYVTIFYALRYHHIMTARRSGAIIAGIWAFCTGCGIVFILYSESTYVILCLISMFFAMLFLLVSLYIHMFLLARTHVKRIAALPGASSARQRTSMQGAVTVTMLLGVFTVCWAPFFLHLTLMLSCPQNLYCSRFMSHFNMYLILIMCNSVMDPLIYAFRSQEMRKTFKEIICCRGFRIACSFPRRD
Square brackets hold non-standard residues; d marks the D form. Peptide text beside a SMILES is read from it. dPhe(4-CF3) = N[C@H](Cc1ccc(C(F)(F)F)cc1)C(=O)O; Nle = CCCC[C@H](N)C(=O)O
recordedEndpoint: IC50 (nM)

compound	observed
CCCC[C@H](NC(=O)[C@@H](Cc1ccc(C(F)(F)F)cc1)NC(=O)[C@H](Cc1cnc[nH]1)NC(C)=O)C(=O)N[C@@H](Cc1c[nH]c2ccccc12)C(N)=O (Ac-H[dPhe(4-CF3)][Nle]W-NH2)	37

a: CC(=O)N[C@@H](Cc1cnc[nH]1)C(=O)N[C@H](Cc1ccccc1)C(=O)N[C@@H](CCCN=C(N)N)C(=O)N[C@@H](Cc1c[nH]c2ccccc12)C(N)=O
b: CCCC[C@H](NC(=O)[C@@H](Cc1ccccc1)NC(=O)[C@H](Cc1cnc[nH]1)NC(C)=O)C(=O)N[C@@H](Cc1c[nH]c2ccccc12)C(N)=O (Ac-H[dF][Nle]W-NH2)
INPUT: Please state the entry with greater IC50 among a and b . Respond with the label that goes with your answer.
OUTPUT: a
(a: 109 nM, b: 46 nM)
